B1: H2-Kb / Ed45 (parent complex)
chain 1: GEQVEQRPPHLSVREGDSAVIICTYTDPNSYYFFWYKQEPGAGLQLLMKVFSSTEINEGQGFTVLLNKKDKQLSLNLTAAHPGDSAVYFCAVSGTNAYKVIFGKGTHLHVLP
chain 2: EAAVTQSPRSKVAVTGGKVTLSCHQTNNHDYMYWYRQDTGHGLRLIHYSYVADSTEKGDIPDGYKASRPSQENFSLILELASLSQTAVYFCASARGFQDTQYFGPGTRLLVL
chain 3: not shown
chain 4: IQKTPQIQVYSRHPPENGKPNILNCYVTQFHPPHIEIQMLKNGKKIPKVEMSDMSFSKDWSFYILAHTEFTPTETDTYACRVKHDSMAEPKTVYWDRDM
chain 5: SIINFEKL

variants of: B1; assay: % of reporter cells activated (NFAT-GFP), raw; further: test concentration or dose not given here
reported property: ratio to parent
Lab note: record just the number, no unit beside it.

Example entries begin here.
| alteration | obs value |
| --- | --- |
| chain 5 K7V | 0.895 |
| chain 5 K7A | 0.925 |

I'd like to know its ratio to parent. The variant in question is chain 5 K7P 0.891
